methodNotes: Chemical stability of Form I (HPLC and visual inspection after storage)
Assay type: physicochemical
measurementSetup: RT/56% RH, 4 weeks
endpointName: HPLC Sum of impurities (%)

INSERT INTO results (compound, valueunits, recordedvalue) VALUES
  ('Cc1cc(Nc2ccnc3c2CCC3O)ccc1NCCc1c[nH]c2c(C)cccc12 (stereo not shown) [Form I]', '%', 0.22);

###

methodNotes: Crystallographic stability of Form I (TGA, DSC, XRPD, IR after storage)
Format: physicochemical
measurementSetup: 0 days
endpointName: TGA <175° C. (%)

INSERT INTO results (compound, valueunits, recordedvalue) VALUES
  ('Cc1cc(Nc2ccnc3c2CCC3O)ccc1NCCc1c[nH]c2c(C)cccc12 (stereo not shown) [Form I]', '%', 0.05);

###

methodNotes: Chemical stability of Form I (HPLC and visual inspection after storage)
Type: physicochemical
measurementSetup: 40° C./75% RH, 4 weeks
endpointName: HPLC Sum of impurities (%)

INSERT INTO results (molecule, recordedvalue) VALUES
  ('Cc1cc(Nc2ccnc3c2CCC3O)ccc1NCCc1c[nH]c2c(C)cccc12 (stereo not shown) [Form I]', 0.14);

###

methodNotes: Crystallographic stability of Form I (TGA, DSC, XRPD, IR after storage)
Assay type: physicochemical
measurementSetup: six weeks open, 50° C.
endpointName: TGA <225° C. (%)

INSERT INTO measurements (compound, endpointname, valueunits, recordedvalue) VALUES
  ('Cc1cc(Nc2ccnc3c2CCC3O)ccc1NCCc1c[nH]c2c(C)cccc12 (stereo not shown) [Form I]', 'TGA <225° C.', '%', 0.2);

###

methodNotes: Chemical stability of Form I (HPLC and visual inspection after storage)
Format: physicochemical
measurementSetup: RT/<5% RH, 4 weeks
Description: The chemical stability of Form I of compound No. 1 was studied according to the following procedure: Form I was stored in different open conditions for periods of 1, 4 and 8 weeks. These conditions are 40° C./75% RH, 50° C., RT/<5% RH, RT/56% RH, RT/75% RH and 0.3 da ICH light. The compounds were analyzed after storage by HPLC and by visual inspection.
endpointName: HPLC Sum of impurities (%)

INSERT INTO results (molecule, endpointname, recordedvalue) VALUES
  ('Cc1cc(Nc2ccnc3c2CCC3O)ccc1NCCc1c[nH]c2c(C)cccc12 (stereo not shown) [Form I]', 'HPLC Sum of impurities', 0.19);

###

methodNotes: Chemical stability of Form I (HPLC and visual inspection after storage)
Format: physicochemical
measurementSetup: RT/<5% RH, 8 weeks
endpointName: HPLC Sum of impurities (%)

INSERT INTO assay_data (compound, endpointname, valueunits, recordedvalue) VALUES
  ('Cc1cc(Nc2ccnc3c2CCC3O)ccc1NCCc1c[nH]c2c(C)cccc12 (stereo not shown) [Form I]', 'HPLC Sum of impurities', '%', 0.24);

###

methodNotes: Chemical stability of Form I (HPLC and visual inspection after storage)
Type: physicochemical
measurementSetup: Reference (1 week)
endpointName: HPLC Sum of impurities (%)

INSERT INTO results (molecule, valueunits, recordedvalue) VALUES
  ('Cc1cc(Nc2ccnc3c2CCC3O)ccc1NCCc1c[nH]c2c(C)cccc12 (stereo not shown) [Form I]', '%', 0.23);

###

methodNotes: Chemical stability of Form I (HPLC and visual inspection after storage)
Assay type: physicochemical
measurementSetup: 40° C./75% RH, 8 weeks
endpointName: HPLC Sum of impurities (%)

INSERT INTO assay_data (compound, endpointname, valueunits, recordedvalue) VALUES
  ('Cc1cc(Nc2ccnc3c2CCC3O)ccc1NCCc1c[nH]c2c(C)cccc12 (stereo not shown) [Form I]', 'HPLC Sum of impurities', '%', 0.2);
